- test: Cytotoxicity against human MGC803 cells after 48 hrs by MTT assay
- Format: functional, cell-based
- details: MGC-803, 48 h
pIC50: −log10 of the molar value.
I'd appreciate it if you could supply pIC50 values for the items below.

The following compounds have reported results that may help.
{"smiles string": "CO[C@H]1[C@H](O)[C@H](O[C@H]2CC[C@@]3(CO)[C@H](CC[C@@H]4[C@@H]3CC[C@]3(C)[C@@H](C5=CC(=O)OC5)CC[C@]43O)C2)O[C@@H](C)[C@@H]1O", "reported value": 7.40}
{"smiles string": "CO[C@H]1[C@@H](O)[C@H](O[C@H]2CC[C@@]3(C)[C@H](CC[C@@H]4[C@@H]3CC[C@]3(C)[C@@H](C5=CC(=O)OC5)CC[C@]43O)C2)O[C@@H](C)[C@@H]1O[C@H]1O[C@@H](CO)[C@H](O)[C@@H](O)[C@@H]1O", "reported value": "< 5.00"}

# input for lookup
Inquiry: Given CO[C@H]1[C@H](O)[C@H](O[C@H]2CC[C@@]3(C)[C@H](CC[C@@H]4[C@@H]3CC[C@]3(C)[C@@H](C5=CC(=O)OC5)CC[C@]43O)C2)O[C@@H](C)[C@@H]1O[C@H]1O[C@@H](CO[C@@H]2O[C@H](CO)[C@@H](O)[C@H](O)[C@H]2O)[C@H](O)[C@@H](O)[C@@H]1O , state its recorded pIC50.
Reply text: < 5.00

----------
- test: Cytotoxicity against human MGC803 cells after 48 hrs by MTT assay
- Type: functional, cell-based
- details: MGC-803, 48 h
I'd appreciate it if you could supply IC50 values for the items below.
Numbers only, in µM.

{"smiles string": "CO[C@H]1[C@H](O)[C@H](O[C@H]2CC[C@@]3(C)[C@@H](CC[C@@H]4[C@@H]3CC[C@]3(C)[C@@H](C5=CC(=O)OC5)CC[C@]43O)C2)O[C@@H](C)[C@@H]1O[C@H]1O[C@@H](CO[C@@H]2O[C@H](CO)[C@@H](O)[C@H](O)[C@H]2O)[C@H](O)[C@@H](O)[C@@H]1O", "result units": "µM", "IC50": 8.32}

# input for lookup
Inquiry: Given CO[C@H]1[C@H](O)[C@H](O[C@H]2CC[C@@]3(C)[C@H](CC[C@@H]4[C@@H]3CC[C@]3(C)[C@@H](C5=CC(=O)OC5)CC[C@]43O)C2)O[C@@H](C)[C@@H]1O , state its recorded IC50.
Reply text: 0.02

----------
- test: Cytotoxicity against human MGC803 cells after 48 hrs by MTT assay
- Type: functional, cell-based
- details: MGC-803, 48 h
I'd appreciate it if you could supply IC50 values for the items below.
Numbers only, in nM.

{"smiles string": "CO[C@@H]1[C@@H](O)[C@@H](O[C@@H]2CC[C@]3(CO)[C@@H](CC[C@H]4[C@H]3CC[C@@]3(C)[C@H](C5=CC(=O)OC5)CC[C@@]43O)C2)O[C@H](C)[C@H]1O[C@@H]1O[C@H](CO[C@H]2O[C@@H](CO)[C@H](O)[C@@H](O)[C@@H]2O)[C@@H](O)[C@H](O)[C@H]1O", "outcome measure": "IC50", "reported value": 9520}

# batch: return IC50 for each of the 2 compounds below
1. CO[C@H]1[C@@H](O)[C@H](O[C@H]2CC[C@@]3(C)[C@H](CC[C@@H]4[C@@H]3CC[C@]3(C)[C@@H](C5=CC(=O)OC5)CC[C@]43O)C2)O[C@@H](C)[C@@H]1O[C@H]1O[C@@H](CO[C@@H]2O[C@H](CO)[C@@H](O)[C@H](O)[C@H]2O)[C@H](O)[C@@H](O)[C@@H]1O
2. CO[C@H]1[C@H](O)[C@H](O[C@H]2CC[C@H]3[C@H](CC[C@@H]4[C@@H]3CC[C@]3(C)[C@@H](C5=CC(=O)OC5)CC[C@]43O)C2)O[C@@H](C)[C@@H]1O

Reply text:
1. 1930
2. 570

----------
I'd appreciate it if you could supply pIC50 values for the items below.
- test: Cytotoxicity against human MGC803 cells after 48 hrs by MTT assay
- Format: functional, cell-based
- details: MGC-803, 48 h
Numbers only, as −log10 of the molar value.

The following compounds have reported results that may help.
{"smiles string": "CO[C@H]1[C@H](O)[C@H](O[C@H]2CC[C@@]3(C)[C@@H](CC[C@@H]4[C@@H]3CC[C@]3(C)[C@@H](C5=CC(=O)OC5)CC[C@]43O)C2)O[C@@H](C)[C@@H]1O", "pIC50": 6.43}
{"smiles string": "CO[C@H]1[C@H](OC(C)=O)[C@H](O[C@@H]2CC[C@]3(C=O)[C@@H](CC[C@H]4[C@H]3CC[C@@]3(C)[C@H](C5=CC(=O)OC5)CC[C@@]43O)C2)O[C@@H](C)[C@@H]1O[C@H]1O[C@@H](CO)[C@H](O)[C@@H](O)[C@@H]1O", "pIC50": 5.91}
{"smiles string": "CO[C@H]1[C@H](O)[C@H](O[C@H]2CC[C@@]3(C(=O)O)[C@H](CC[C@@H]4[C@@H]3CC[C@]3(C)[C@@H](C5=CC(=O)OC5)CC[C@]43O)C2)O[C@@H](C)[C@@H]1O", "pIC50": 5.41}
{"smiles string": "CO[C@H]1[C@H](O)[C@H](O[C@H]2CC[C@H]3[C@H](CC[C@@H]4[C@@H]3CC[C@]3(C)[C@@H](C5=CC(=O)OC5)CC[C@]43O)C2)O[C@@H](C)[C@@H]1O[C@@H]1O[C@H](CO[C@@H]2O[C@H](CO)[C@@H](O)[C@H](O)[C@H]2O)[C@@H](O)[C@H](O)[C@H]1O", "pIC50": 5.09}
{"smiles string": "CO[C@H]1[C@H](OC(C)=O)[C@H](O[C@H]2CC[C@@]3(C)[C@@H](CC[C@@H]4[C@@H]3CC[C@]3(C)[C@@H](C5=CC(=O)OC5)CC[C@]43O)C2)O[C@@H](C)[C@@H]1O[C@H]1O[C@@H](CO[C@@H]2O[C@H](CO)[C@@H](O)[C@H](O)[C@H]2O)[C@H](O)[C@@H](O)[C@@H]1O", "pIC50": 5.00}

# input for lookup
Inquiry: Given CO[C@H]1[C@H](OC(C)=O)[C@H](O[C@H]2CC[C@@]3(C)[C@H](CC[C@@H]4[C@@H]3CC[C@]3(C)[C@@H](C5=CC(=O)OC5)CC[C@]43O)C2)O[C@@H](C)[C@@H]1O[C@H]1O[C@@H](CO[C@@H]2O[C@H](CO)[C@@H](O)[C@H](O)[C@H]2O)[C@H](O)[C@@H](O)[C@@H]1O , state its recorded pIC50.
Reply text: 5.15

----------
I'd appreciate it if you could supply IC50 values for the items below.
- test: Cytotoxicity against human MGC803 cells after 48 hrs by MTT assay
- Type: functional, cell-based
- details: MGC-803, 48 h
Give bare numbers, in µM.

{"compound": "CO[C@H]1[C@@H](O)[C@H](O[C@H]2CC[C@@]3(C)[C@@H](CC[C@@H]4[C@@H]3CC[C@]3(C)[C@@H](C5=CC(=O)OC5)CC[C@]43O)C2)O[C@@H](C)[C@@H]1O[C@H]1O[C@@H](CO[C@@H]2O[C@H](CO)[C@@H](O)[C@H](O)[C@H]2O)[C@H](O)[C@@H](O)[C@@H]1O", "IC50 [µM]": 6.56}

# input for lookup
Inquiry: Given CO[C@H]1[C@H](O)[C@H](O[C@H]2CC[C@@]3(C=O)[C@H](CC[C@@H]4[C@@H]3CC[C@]3(C)[C@@H](C5=CC(=O)OC5)CC[C@]43O)C2)O[C@@H](C)[C@@H]1O [PERUVOSIDE] , state its recorded IC50.
Reply text: 0.02

----------
- test: Cytotoxicity against human MGC803 cells after 48 hrs by MTT assay
- Format: functional, cell-based
- details: MGC-803, 48 h
outcome measure: pIC50
Answers are plain numbers, as −log10 of the molar value.

Inquiry: Given CO[C@H]1[C@H](O)[C@H](O[C@H]2CC[C@@]3(O)[C@H](CC[C@@H]4[C@@H]3CC[C@]3(C)[C@@H](C5=CC(=O)OC5)CC[C@]43O)C2)O[C@@H](C)[C@@H]1O , state its recorded pIC50.
Reply text: 5.67

----------
- test: Cytotoxicity against human MGC803 cells after 48 hrs by MTT assay
- Assay type: functional, cell-based
- details: MGC-803, 48 h
outcome measure: IC50 (µM)
Numbers only, in µM.

The following compounds have reported results that may help.
{"compound": "CO[C@H]1[C@H](OC(C)=O)[C@H](O[C@H]2CC[C@@]3(C)[C@H](CC[C@@H]4[C@@H]3CC[C@]3(C)[C@@H](C5=CC(=O)OC5)CC[C@]43O)C2)O[C@@H](C)[C@@H]1O[C@H]1O[C@@H](CO)[C@H](O)[C@@H](O)[C@@H]1O", "IC50 / µM": 3.21}
{"compound": "O=c1[nH]cc(F)c(=O)[nH]1 [FLUOROURACIL]", "IC50 / µM": 68.3}
{"compound": "CO[C@H]1[C@H](O)[C@H](O[C@H]2CC[C@@]3(C)[C@@H](CC[C@@H]4[C@@H]3CC[C@]3(C)[C@@H](C5=CC(=O)OC5)CC[C@]43O)C2)O[C@@H](C)[C@@H]1O[C@H]1O[C@@H](CO)[C@H](O)[C@@H](O)[C@@H]1O", "IC50 / µM": 3.42}
{"compound": "CO[C@@H]1[C@H](O)[C@@H](O[C@@H]2CC[C@]3(CO)[C@@H](CC[C@H]4[C@H]3CC[C@@]3(C)[C@H](C5=CC(=O)OC5)CC[C@@]43O)C2)O[C@H](C)[C@H]1O[C@@H]1O[C@H](CO)[C@@H](O)[C@H](O)[C@H]1O", "IC50 / µM": 5.75}
{"compound": "CO[C@H]1[C@H](OC(C)=O)[C@H](O[C@@H]2CC[C@]3(C=O)[C@@H](CC[C@H]4[C@H]3CC[C@@]3(C)[C@H](C5=CC(=O)OC5)CC[C@@]43O)C2)O[C@@H](C)[C@@H]1O[C@H]1O[C@@H](CO[C@@H]2O[C@H](CO)[C@@H](O)[C@H](O)[C@H]2O)[C@H](O)[C@@H](O)[C@@H]1O", "IC50 / µM": 9.53}

Inquiry: Given CO[C@@H]1[C@@H](O)[C@@H](O[C@@H]2CC[C@]3(CO)[C@@H](CC[C@H]4[C@H]3CC[C@@]3(C)[C@H](C5=CC(=O)OC5)CC[C@@]43O)C2)O[C@H](C)[C@H]1O[C@@H]1O[C@H](CO)[C@@H](O)[C@H](O)[C@H]1O , state its recorded IC50.
Reply text: 0.32
